assay: cAMP Responsive Elements (CRE) small molecule agonists, cell-based qHTS assay: qHTS cell viability counter screen (AID 2060914); conditions: CRE-bla HEK293T viability, CellTiter-Glo luminescence, 5 h; series mostly up to 92.4 µM; note: nearly all actives have a fitted effect of over 50% in size
Records with an inconclusive call do not appear. Active and inactive are the calls of the source. Calls come from the whole dose curve; as a rule, active = well fitted cell-killing curve with a large enough effect in the repeat runs; inconclusive = weak or mixed curves, or effect the other way; inactive = flat fitted curve, though single readings scatter.
Respond only with the outcome that fits, drawn from active, inactive

Query: Status in this test for O=C(O)CC(Cl)C(=O)O (stereo not given) ?
Response: inactive

Query: Now the compound CCc1cnc(C2=NC(C)(C(C)C)C(=O)N2)c(C(=O)O)c1 (stereo not given)
Response: inactive

Query: Further, for `CCOC(=O)C1(c2ccccc2)CCN(CCC(C#N)(c2ccccc2)c2ccccc2)CC1` ?
Response: inactive

Query: // repeat for `CN1CCC(N(Cc2ccccc2)c2ccccc2)CC1` and report
Response: inactive

Query: // repeat for `CN(N=O)c1ccc([N+](=O)[O-])cc1` and report
Response: inactive

Query: Field entry: `CC(C)(N)Cc1ccc(Cl)cc1`
Response: inactive

Query: Same again, this time with `Cc1cc(Cl)ccc1OCCCC(=O)O`
Response: inactive

Query: Also check `CNC(=O)N(C)c1nc2ccccc2s1`
Response: inactive

Query: Try `N#Cc1ccccc1Cl` next.
Response: inactive

Query: Follow-up item: `NC(=O)C(Cl)(Cl)Cl`
Response: inactive

Query: Also need ClC1=C(Cl)C2(Cl)C3C(Cl)C(Cl)CC3C1(Cl)C2(Cl)Cl (stereo not given) , thanks.
Response: active

Query: Entry `O=C(O)C(F)(F)C(F)(F)C(F)(F)C(F)(F)C(F)(F)C(F)(F)C(F)(F)F` please
Response: inactive

Query: Also `O=c1[nH]c2ccccc2n1CCCN1CCC(n2c(=O)[nH]c3cc(Cl)ccc32)CC1` ?
Response: inactive

Query: // same read-out, input: Fc1ccc(C2(Cn3cncn3)OC2c2ccccc2Cl)cc1 (stereo not given)
Response: inactive

Query: Next entry: `Cc1cccc(N)c1`
Response: inactive

Query: Do the same for `ClCc1ccc(Cl)cc1Cl` please
Response: inactive

Query: Try this compound next: CC(C)CC(C)Nc1ccc(Nc2ccccc2)cc1 (stereo not given)
Response: inactive

Query: Now the compound `O=S(=O)(NS(=O)(=O)C(F)(F)F)C(F)(F)F`
Response: inactive

Query: Same read-out for `C1CS1` ?
Response: inactive

Query: Another compound: `CC1=NNC(=O)N(/N=C/c2cccnc2)C1`
Response: inactive

Query: Entry to check: `ClC(Cl)C(Cl)(Cl)Cl`
Response: inactive

Query: Likewise for `NC(=O)CN1CCCC1=O` ?
Response: inactive

Query: Also C=CC(Cl)CCl (stereo not given) , if possible.
Response: inactive

Query: What about `COc1ccc(C=O)cc1` ?
Response: inactive

Query: Another compound to check: `CN1C(=O)[C@@H](NC(=O)c2cc3ccccc3[nH]2)N=C(c2ccccc2)c2ccccc21`
Response: inactive

Query: How about this compound: `[N-]=[N+]=[N-]`
Response: inactive

Query: How about `N#C/C=C/c1ccccc1` ?
Response: inactive

Query: How about `Nc1cc(Cl)ccc1Cl` ?
Response: inactive

Query: Queued: `CCCC[N+](CCCC)(CCCC)CCCC`
Response: inactive

Query: Another compound: `CCCCCCCCn1cc[n+](C)c1`
Response: inactive

Reference for the values: PubChem BioAssay (Tox21)
